Cited source for all entries: ChEMBL document CHEMBL4339200

# test target: PXR (NR1I2) (Homo sapiens, UniProt O75469)
# test name: Transactivation of PXR in human HepG2 cells relative to rifampicin
# Assay type: ADME, cell-based
# measurement setup: read-out: %max
measure: Emax (%)

>>> print(df.to_string())
                                   compound                               test_target  meas_value
0  CCc1ccc(S(=O)(=O)[C@@]2(c3ccc(C(F)(C(F)(F)F)C(F)(F)F)cc3)CCN(C(=O)[C@H]3CC[C@H](C(=O)O)CC3)C2)cc1  PXR (NR1I2) (Homo sapiens, UniProt O75469)           3
1  O=S(=O)(c1ccc(F)cc1)C1(c2ccc(C(F)(C(F)(F)F)C(F)(F)F)cc2)CCCC1  PXR (NR1I2) (Homo sapiens, UniProt O75469)         130
2  O=S(=O)(c1ccc(F)cc1)[C@@]1(c2ccc(C(O)(C(F)(F)F)C(F)(F)F)cc2)CCNC1  PXR (NR1I2) (Homo sapiens, UniProt O75469)         110

a. O=S(=O)(c1ccc(F)cc1)[C@]1(c2ccc(C(O)(C(F)(F)F)C(F)(F)F)cc2)CCNC1
b. Cc1ccc(S(=O)(=O)[C@@]2(c3ccc(C(F)(C(F)(F)F)C(F)(F)F)cc3)CCN(C(=O)[C@H]3CC[C@H](C(=O)O)CC3)C2)cc1
c. O=C(O)[C@H]1CC[C@H](C(=O)N2CC[C@](c3ccc(C(O)(C(F)(F)F)C(F)(F)F)cc3)(S(=O)(=O)c3ccc(F)cc3)C2)CC1
d. CS(=O)(=O)N1CCC(C(=O)N2CC[C@](c3ccc(C(F)(C(F)(F)F)C(F)(F)F)cc3)(S(=O)(=O)c3ccc(F)cc3)C2)CC1
Data request: Rank descending by Emax. Sort the labels as requested; that list is your answer.
Data returned: a, b, c, d
(a: 110%, b: 29%, c: 11%, d: 2%)

A. O=C(O)[C@H]1CC[C@H](C(=O)N2CC[C@](c3ccc(C(F)(C(F)(F)F)C(F)(F)F)cc3)(S(=O)(=O)c3ccc(Cl)cc3)C2)CC1
B. CCC(O)(c1ccc(C2(S(=O)(=O)c3ccc(F)cc3)CCCC2)cc1)C(F)(F)F (racemic)
Data request: Which is greater in Emax, the first item A or the second item B ? Your answer should be the label of the entry you select.
Data returned: B

----------
# test name: Stability in mouse liver microsomes assessed as parent compound remaining after 10 mins
# Format: ADME, Microsome
# measurement setup: read-out: Stability
measure: remaining at 10 min (%)

In [3]: df
Out[3]:
                                chem_smiles  meas_value
0  O=C(O)[C@H]1CC[C@H](C(=O)N2CC[C@](c3ccc(C(F)(C(F)(F)F)C(F)(F)F)cc3)(S(=O)(=O)c3ccccc3)C2)CC1          96
1  O=C(O)[C@H]1CC[C@H](C(=O)N2CC[C@](c3ccc(C(F)(C(F)(F)F)C(F)(F)F)cc3)(S(=O)(=O)c3ccc(Cl)cc3)C2)CC1         100
2  O=C(O)[C@H]1CC[C@H](C(=O)N2CC[C@](c3ccc(C(F)(C(F)(F)F)C(F)(F)F)cc3)(S(=O)(=O)c3ccc(F)c(C4CC4)c3)C2)CC1          74
3  COc1ccc(S(=O)(=O)[C@@]2(c3ccc(C(F)(C(F)(F)F)C(F)(F)F)cc3)CCN(C(=O)[C@H]3CC[C@H](C(=O)O)CC3)C2)cc1          98
4  CC(=O)N1CCN(C(=O)N2CC[C@](c3ccc(C(F)(C(F)(F)F)C(F)(F)F)cc3)(S(=O)(=O)c3ccc(F)cc3)C2)CC1          68
5  O=C(O)C1CCN(C(=O)N2CC[C@](c3ccc(C(F)(C(F)(F)F)C(F)(F)F)cc3)(S(=O)(=O)c3ccc(F)cc3)C2)CC1          88

----------
# test target: Nuclear receptor subfamily 1 group I member 2 (Homo sapiens, UniProt O75469)
# test name: Transactivation of PXR in human HepG2 cells
measure: EC50 (nM)

>>> print(df.to_string())
                                   compound  measure  value_units  meas_value
0  O=S(=O)(c1ccc(F)cc1)C1(c2ccc(C(Cl)(C(F)(F)F)C(F)(F)F)cc2)CCCC1     EC50           nM         229

1. O=S(=O)(c1ccc(F)cc1)C1(c2ccc(C(O)(C(F)(F)F)C(F)(F)F)cc2)CCCC1
2. CC(=O)N1CCC(c2ccc(C(O)(C(F)(F)F)C(F)(F)F)cc2)(S(=O)(=O)c2ccc(F)cc2)C1 (racemic)
3. O=C(O)[C@H]1CC[C@H](C(=O)N2CC[C@](c3ccc(C(F)(C(F)(F)F)C(F)(F)F)cc3)(S(=O)(=O)c3ccc(Cl)cc3)C2)CC1
Data request: Put these in order: smallest EC50 first, largest last. Sort the labels as requested; that list is your answer.
Data returned: 1, 2, 3

----------
# test target: PXR (NR1I2) (Homo sapiens, UniProt O75469)
# Sequence (O75469 whole entry): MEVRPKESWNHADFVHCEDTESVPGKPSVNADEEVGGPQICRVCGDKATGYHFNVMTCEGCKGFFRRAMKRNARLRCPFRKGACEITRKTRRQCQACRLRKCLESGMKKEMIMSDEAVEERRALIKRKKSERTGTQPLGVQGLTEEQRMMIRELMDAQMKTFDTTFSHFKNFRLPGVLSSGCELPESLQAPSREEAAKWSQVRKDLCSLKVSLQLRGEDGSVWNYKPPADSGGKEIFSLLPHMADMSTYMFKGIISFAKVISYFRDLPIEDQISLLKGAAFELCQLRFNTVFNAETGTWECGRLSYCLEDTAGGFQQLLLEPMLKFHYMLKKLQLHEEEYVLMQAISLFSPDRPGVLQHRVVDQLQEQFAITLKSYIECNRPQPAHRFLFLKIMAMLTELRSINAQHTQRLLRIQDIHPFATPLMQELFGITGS
# test name: Transactivation of PXR in human HepG2 cells relative to rifampicin
# Format: ADME, cell-based
# measurement setup: read-out: %max
measure: Emax (%)

Use the examples below as a reference point.
>>> df
                                   molecule  meas_value
0  O=C(O)[C@H]1CC[C@H](C(=O)N2CC[C@](c3ccc(C(F)(C(F)(F)F)C(F)(F)F)cc3)(S(=O)(=O)c3ccc(F)c(C4CC4)c3)C2)CC1           9
1  NC(c1ccc(C2(S(=O)(=O)c3ccc(F)cc3)CCCC2)cc1)(C(F)(F)F)C(F)(F)F         120
2  O=C(O)C1CCN(C(=O)N2CC[C@](c3ccc(C(F)(C(F)(F)F)C(F)(F)F)cc3)(S(=O)(=O)c3ccc(F)cc3)C2)CC1          23
3  CCc1cc(S(=O)(=O)[C@@]2(c3ccc(C(F)(C(F)(F)F)C(F)(F)F)cc3)CCN(C(=O)[C@H]3CC[C@H](C(=O)O)CC3)C2)ccc1F           9
4  CC(=O)N1CCC(C(=O)N2CC[C@](c3ccc(C(F)(C(F)(F)F)C(F)(F)F)cc3)(S(=O)(=O)c3ccc(F)cc3)C2)CC1           7

1. O=C(C1CCCC1)N1CCC(c2ccc(C(O)(C(F)(F)F)C(F)(F)F)cc2)(S(=O)(=O)c2ccc(F)cc2)C1 (racemic)
2. O=C(O)[C@H]1CC[C@H](C(=O)N2CC[C@](c3ccc(C(F)(C(F)(F)F)C(F)(F)F)cc3)(S(=O)(=O)c3ccc(F)cc3)C2)CC1
Data request: Hi! Which is lower in terms of Emax, the first one 1 or the second one 2 ? Your answer should be the label of the entry you select.
Data returned: 2
(2: 18%, 1: 99%)

----------
# test name: Protein binding in human plasma assessed as unbound fraction
# Assay type: ADME, cell-free
measure: fraction unbound

                                chem_smiles           measure  meas_value
0  Cc1cc(S(=O)(=O)[C@@]2(c3ccc(C(F)(C(F)(F)F)C(F)(F)F)cc3)CCN(C(=O)[C@H]3CC[C@H](C(=O)O)CC3)C2)ccc1F  fraction unbound       0.017

A. O=C(O)[C@H]1CC[C@H](C(=O)N2CC[C@](c3ccc(C(F)(C(F)(F)F)C(F)(F)F)cc3)(S(=O)(=O)c3ccc(F)cc3)C2)CC1
B. Cc1ccc(S(=O)(=O)[C@@]2(c3ccc(C(F)(C(F)(F)F)C(F)(F)F)cc3)CCN(C(=O)[C@H]3CC[C@H](C(=O)O)CC3)C2)cc1
Data request: Hi! Which is lower in terms of fraction unbound, the first one A or the second one B ? Your answer should be the label of the entry you select.
Data returned: B
(B: 0.013, A: 0.037)
